Assay: growth suppression of yeast trafficking mutant, preliminary HTS, modulators of trafficking downstream of Golgi apparatus project, 1536-format plate, OD 615 nm (AID 637)
Conditions: yeast transport mutant growth, absorbance 615 nm, 18 h; stronger effect = higher value
quantity name: inhibition (%)

{"columns": ["compound", "unit spec", "value"],
 "data": [
  ["COc1cc(C)c(N)cc1C(C)C", "%", -0.82],
  ["Cc1cccc(-c2cc3nc(C)cc(NCCCN(C)C)n3n2)c1", "%", 1.97],
  ["Brc1ccc(-c2csc(/N=C/N3CCOCC3)n2)cc1", "%", -7.1],
  ["CN(Cc1ccccc1)Cc1c[nH]c2ccccc12", "%", -1.5],
  ["CN(c1ccccc1C(N)=O)S(=O)(=O)c1ccccc1", "%", -0.48],
  ["O=C(NCc1cccs1)C1CC(=O)N(c2ccccc2)C1 (configuration not stated)", "%", -2.3],
  ["CSc1ccccc1N=CC1=C(O)CC(C)(C)CC1=O", "%", -3.28],
  ["COc1cccc(C(=O)Nc2ccc(C)cc2)c1", "%", -7.46],
  ["COc1cc(-c2nnc(SCc3c(F)cccc3Cl)o2)cc(OC)c1OC", "%", -4.1],
  ["COc1ccc2cc(C(=O)NCc3ccco3)c(=Nc3ccc(C(=O)O)cc3)oc2c1", "%", -1],
  ["O=C(Cn1ccc2ccccc2c1=O)NCCC(=O)NC1CCN(Cc2ccccc2)CC1", "%", -4.91],
  ["COc1ccc(C(=O)CSc2nnc(C3CCCCC3)n2N)c(OC)c1", "%", -6.23]
]}

---

# viability listing for each entry below
Experiment: reversal of MRP1-mediated doxorubicin resistance, pilot screen, H69AR cells, doxorubicin co-treatment (AID 601)
Conditions: H69AR cells + 2 uM doxorubicin, CellTiter-Glo, 72 h; measured here: viability with 2 uM doxorubicin; at 10 µM; stronger effect = lower value

{"columns": ["compound", "viability, %"],
 "data": [
  ["O=C(Nc1ccon1)c1csc2c1CCCC2", 87.4],
  ["CCOC(=O)c1ccc(NC(=O)CCc2c(C)nc3ncnn3c2C)cc1", 102],
  ["Cc1cc(NC(=O)CCOc2ccccc2)no1", 85.7],
  ["COC(=O)c1ccccc1NC(=O)CSc1nc2c(c(=O)n(C)c(=O)n2C)n1C", 93.5],
  ["CCC(=O)/C=C1\\Sc2ccc(OC)cc2N1CCO", 85.7],
  ["NC(=O)c1c(-c2ccccc2)oc2ccc(O)cc12", 77],
  ["O=C(NC1CCS(=O)(=O)C1)c1c(NC(=O)C2COc3ccccc3O2)sc2c1CCCC2 (stereo not drawn)", 36],
  ["CCOc1ccc2c(c1)sc1nc(C(=O)OC)cc(=O)n12", 85.4],
  ["COc1ccc(NC(=O)CN2CCCCC2)cc1", 82.3],
  ["CCOc1ccc(N(CC)C(=O)COc2cc(=O)n(C)c3ccccc23)cc1", 88.6],
  ["O=C(c1cnn2c(C(F)F)cc(C3CC3)nc12)N1CCOCC1", 93.5],
  ["Oc1cnc2ccccc2c1CN1CCOCC1", 104],
  ["COc1ccc2oc(=O)c(C(=O)N3CCN(c4ccccc4F)CC3)cc2c1", 97.6],
  ["COc1ccc(-c2cc(C(F)(F)F)n3ncc(C(=O)NCC4CCCO4)c3n2)cc1 (stereo not drawn)", 47.6],
  ["O=C1NC(c2ccco2)Nc2ccccc21 (stereo not drawn)", 90.8],
  ["CC1C(c2ccccc2)N(C)CCC12NC(=O)NC2=O (stereo not drawn)", 85.2],
  ["Cc1nc2ccccc2cc1C(=O)NCc1ccco1", 85.1],
  ["Cc1ccc(C(c2sc3nc(C)nn3c2O)N2CC(C)OC(C)C2)cc1 (stereo not drawn)", 90.2],
  ["COCCCNS(=O)(=O)c1ccc2c(c1)CCN2C(C)=O", 105],
  ["COc1cc(OC)cc(OCC(O)Cn2cnc(-c3ccccc3)c2)c1 (stereo not drawn)", 95.2],
  ["O=C1CN=C(Nc2cccc(C(F)(F)F)c2)N1C1CCCC1", 97.7],
  ["Cc1cc(C)nc(N2CCC(C(=O)NCc3cccc(C(F)(F)F)c3)CC2)n1", 86.2],
  ["NC(=O)c1nsnc1-c1ccccc1O", 97.2],
  ["COc1ccc(-n2ncc3c(NCc4ccccn4)ncnc32)cc1", 87],
  ["Cc1noc(C)c1C(=O)OCC(=O)Nc1ccccc1C(=O)NC(C)c1ccccc1 (stereo not drawn)", 94.1],
  ["Cc1cc2c(cc1C)C(=O)NC(C)(C)C2", 109],
  ["COc1ccccc1NC(=O)c1ccc(NC(=O)CSc2nnnn2C)cc1", 38.7],
  ["O=C(OCCN1C(=O)c2ccccc2C1=O)c1ccc(S(=O)(=O)N2CCCCCC2)cc1", 87.6],
  ["CC(C)=CC/C=C1\\CCC(C(=O)O)C(C(=O)O)C1 (stereo not drawn)", 83.2],
  ["O=C(NCCCn1ccnc1)c1csc2ccccc12", 85.6],
  ["O=c1c2c3c(sc2nc2sc(C4CC4)nn12)CCCC3", 87.2],
  ["CCC(=O)N1CCN(CCN=CC2=C(O)CC(C)(C)CC2=O)CC1", 95.2],
  ["CCCCOc1ccc(-c2nnn(CC(=O)Nc3ncc(CC(=O)OCC)s3)n2)cc1", 88.4],
  ["CC(c1ccccc1)N1C(=O)c2ccc(C(=O)NCc3ccco3)cc2C1=O (stereo not drawn)", 90.1],
  ["Cc1cc(-c2ccccc2)c(C#N)c(N)n1", 92.8],
  ["C=CCOc1nc(N2CCCC2)nc(N2CCCC2)n1", 81.1],
  ["CCOC(=O)CSc1nnc([C@H](C)NC(=O)OC(C)(C)C)o1", 85.7],
  ["O=C(Nc1cccnc1)c1cccc(NC(=O)c2ccco2)c1", 89.3],
  ["O=C(Nc1nnc(COc2ccc(F)cc2)s1)c1cccs1", 84.9],
  ["O=C(Oc1ccc2c(c1)CCC2)N1CCOCC1", 88.9],
  ["CN1CCCN(CC(O)COCc2cccs2)CC1 (stereo not drawn)", 96.6],
  ["COc1cc(C(=O)Nc2ccc(-n3cnnn3)c(C)c2)cc(OC)c1OC", 98.8],
  ["CCOC(=O)Cc1csc(NC(=O)CN(C)S(=O)(=O)c2ccc3c(c2)CCC(=O)N3)n1", 93.7],
  ["CCN(CC)S(=O)(=O)c1ccc(Cl)c(C(=O)OC)c1", 91],
  ["COc1ccc2c(c1)CCc1c(C(=O)N3CCCc4ccccc43)noc1-2", 78.1],
  ["Cc1nn(-c2ccccc2)c2sc(C(=O)N3CCOCC3)cc12", 89.6],
  ["N#CCCCN1C(=O)C(O)(CC(=O)c2ccc3c(c2)OCCO3)c2ccccc21 (stereo not drawn)", 79.2],
  ["Cc1cc(C(=O)N2CCN(C/C=C/c3ccccc3)CC2)no1", 92.5]
]}
